ASSAYED TARGET: Carbonic anhydrase 1 (Homo sapiens, UniProt P00915)
Sequence (P00915 whole entry): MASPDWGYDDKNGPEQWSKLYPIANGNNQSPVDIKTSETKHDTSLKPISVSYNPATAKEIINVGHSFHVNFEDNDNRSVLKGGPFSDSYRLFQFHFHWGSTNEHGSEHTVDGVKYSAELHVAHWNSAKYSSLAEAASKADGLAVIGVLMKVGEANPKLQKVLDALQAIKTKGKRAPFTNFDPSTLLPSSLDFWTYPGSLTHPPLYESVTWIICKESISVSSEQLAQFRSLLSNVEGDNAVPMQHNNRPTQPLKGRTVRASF
PROTOCOL SUMMARY: Inhibition of human recombinant carbonic anhydrase 1 preincubated for 15 mins prior to testing measured for 10 to 100 secs by phenol red-based stopped-flow CO2 hydration assay
Entries and their Ki values follow.

[[record]]
compound_string = "Oc1ccc(O)c(O)c1"
result = "> 100 µM"


Name the recorded Ki of `Oc1c(F)cc(F)cc1F` , assay system Carbonic anhydrase 1 (Homo sapiens, UniProt P00915). > 100 µM

Give Ki only, for `Nc1ccc(O)c(Cl)c1` , using Carbonic anhydrase 1 (Homo sapiens, UniProt P00915) data. 57.8 µM

----------
PROTOCOL SUMMARY: Inhibition of Malassezia globosa recombinant beta-carbonic anhydrase preincubated for 15 mins prior to testing measured for 10 to 100 secs by phenol red-based stopped-flow CO2 hydration assay
pKi: −log10 of the molar value.
PROPERTY LABEL: pKi

Solved cases (5 shown):
[[record]]
compound = "OCc1ccc(O)cc1 [PARAHYDROXYBENZYL ALCOHOL]"
recorded_number = 5.21

[[record]]
compound = "O=C(O)c1c(O)cccc1O"
recorded_number = 5.23

[[record]]
compound = "O=C(O)c1cc(O)ccc1O"
recorded_number = 5.35

[[record]]
compound = "Oc1cccc(O)c1"
recorded_number = 5.21

[[record]]
compound = "N#Cc1ccc(O)cc1"
recorded_number = 6.15


[A] Oc1ccccc1O
[B] CC(=O)Nc1ccc(O)cc1
[C] Nc1cc(O)ccc1Cl
Please list these compounds in decreasing order of pKi. Please respond by ranking the labels in the order requested. B, A, C

----------
PROTOCOL SUMMARY: Inhibition of Malassezia globosa recombinant beta-carbonic anhydrase preincubated for 15 mins prior to testing measured for 10 to 100 secs by phenol red-based stopped-flow CO2 hydration assay
PROPERTY LABEL: Ki (µM)
Report the figure in µM without appending any unit label.

[[record]]
compound = "Oc1ccc(O)cc1 [HYDROQUINONE]"
property_label = "Ki"
recorded_number = 6.3


Input `Oc1ccccc1` , output reported Ki. 65
